# System: AAT derived from Chamaemelum nobile
# assay-summary: Substrate specificity of AAT derived from Chamaemelum nobile
# Assay type: biochemical
# experimental-conditions: 40 mM n-butanol, 0.12 mM acyl-CoA, pH 8.5; butyl methacrylate = 100%
measured-endpoint: Relative activity with n-butanol (%)
Give a bare numeral; the unit % is implied.

Some entries whose results are on file:
- compound-smiles: "CCC(=O)SCCNC(=O)CCNC(=O)[C@H](O)C(C)(C)COP(=O)(O)OP(=O)(O)OC[C@H]1O[C@@H](n2cnc3c(N)ncnc32)[C@H](O)[C@@H]1OP(=O)(O)O"
  test-target: "AAT derived from Chamaemelum nobile"
  Relative activity with n-butanol, %: 136
- compound-smiles: "CC(=O)SCCNC(=O)CCNC(=O)[C@H](O)C(C)(C)COP(=O)(O)OP(=O)(O)OC[C@H]1O[C@@H](n2cnc3c(N)ncnc32)[C@H](O)[C@@H]1OP(=O)(O)O"
  test-target: "AAT derived from Chamaemelum nobile"
  Relative activity with n-butanol, %: 37
- compound-smiles: "CC(C)C(=O)SCCNC(=O)CCNC(=O)[C@H](O)C(C)(C)COP(=O)(O)OP(=O)(O)OC[C@H]1O[C@@H](n2cnc3c(N)ncnc32)[C@H](O)[C@@H]1OP(=O)(O)O"
  test-target: "AAT derived from Chamaemelum nobile"
  Relative activity with n-butanol, %: 114
- compound-smiles: "CCCC(=O)SCCNC(=O)CCNC(=O)[C@H](O)C(C)(C)COP(=O)(O)OP(=O)(O)OC[C@H]1O[C@@H](n2cnc3c(N)ncnc32)[C@H](O)[C@@H]1OP(=O)(O)O"
  test-target: "AAT derived from Chamaemelum nobile"
  Relative activity with n-butanol, %: 40
- compound-smiles: "C=C(C)C(=O)SCCNC(=O)CCNC(=O)[C@H](O)C(C)(C)COP(=O)(O)OP(=O)(O)OC[C@H]1O[C@@H](n2cnc3c(N)ncnc32)[C@H](O)[C@@H]1OP(=O)(O)O"
  test-target: "AAT derived from Chamaemelum nobile"
  Relative activity with n-butanol, %: 100

From here, focus on the item given below.
Exam item: Which Relative activity with n-butanol is reported for this molecule? CCCCCC(=O)SCCNC(=O)CCNC(=O)[C@H](O)C(C)(C)COP(=O)(O)OP(=O)(O)OC[C@H]1O[C@@H](n2cnc3c(N)ncnc32)[C@H](O)[C@@H]1OP(=O)(O)O
Marked response: 21

Sourced from patent US10570426B2
